Tested on: IGROV-1
Test details: Anticancer activity against human IGROV1 cells after 48 hrs by SRB assay
Assay type: functional
Stated conditions: IGROV-1, 48 h
Experimental endpoint: TGI (µM)
Express the result in µM but write the number alone.

*Q* Tell us which TGI value is on record for "COc1cccc(-c2nc3sccn3c2-c2ccnc(NCCNC(=O)Nc3cccc(C(F)(F)F)c3)n2)c1"
*A* 21.8

*Q* Look up TGI of "O=C(NCCNc1nccc(-c2c(-c3cccc(O)c3)nc3sccn23)n1)c1ccccc1O" and report it.
*A* 92.9

*Q* Report TGI, nothing else, for this compound: "O=C(NCCNc1nccc(-c2c(-c3cccc(O)c3)nc3sccn23)n1)Nc1cccc(C(F)(F)F)c1"
*A* 13.1

*Q* Answer with reported TGI of "O=C(NCCNc1nccc(-c2c(-c3cccc(O)c3)nc3sccn23)n1)c1ccccc1"
*A* 50.8

###

Entries and their growth at 10 µM values follow.
Test system: SK-MEL-5
Test details: Anticancer activity against human SK-MEL-5 cells assessed as cell growth at 10^-5 M after 48 hrs by SRB assay
Format: functional
Stated conditions: SK-MEL-5, 48 h, read-out: Activity
State the answer as a number, implicitly in %.

*Q* Please look at "COc1cccc(-c2nc3sccn3c2-c2ccnc(NCCNC(=O)c3ccccc3O)n2)c1" and tell me its recorded growth at 10 µM on SK-MEL-5.
*A* 48.6

*Q* Give measured growth at 10 µM for "O=C(NCCNc1nccc(-c2c(-c3cccc(O)c3)nc3sccn23)n1)c1cc(N2CCOCC2)cc(C(F)(F)F)c1" (SK-MEL-5).
*A* 58.4

*Q* Fill in growth at 10 µM for "COc1cccc(-c2nc3sccn3c2-c2ccnc(NCCNC(=O)c3cc(N4CCOCC4)cc(C(F)(F)F)c3)n2)c1" tested with SK-MEL-5.
*A* 66.2

*Q* Give growth at 10 µM; test system SK-MEL-5; molecule "COc1cccc(-c2nc3sccn3c2-c2ccnc(NCCNC(=O)c3cccc(C(F)(F)F)c3)n2)c1"
*A* 48.4

###

Test system: CCRF-CEM
Test details: Anticancer activity against human CCRF-CEM cells assessed as cell growth at 10^-5 M after 48 hrs by SRB assay
Assay type: functional
Stated conditions: read-out: Activity
growth at 10 µM values by entry
Number in %, nothing else.

Sample answers from the record:
Smiles notation: COc1cccc(-c2nc3sccn3c2-c2ccnc(NCCNC(=O)c3cc(N4CCOCC4)cc(C(F)(F)F)c3)n2)c1
Meas value: 49.4
--
Smiles notation: COc1cccc(-c2nc3sccn3c2-c2ccnc(NCCNC(=O)c3ccccc3O)n2)c1
Meas value: 34.7
--
Smiles notation: O=C(NCCNc1nccc(-c2c(-c3cccc(O)c3)nc3sccn23)n1)Nc1cc(C(F)(F)F)cc(C(F)(F)F)c1
Meas value: 39.1
--
Smiles notation: COc1cccc(-c2nc3sccn3c2-c2ccnc(NCCNC(=O)c3cccc(C(F)(F)F)c3)n2)c1
Meas value: 39.3
--
Smiles notation: O=C(NCCNc1nccc(-c2c(-c3cccc(O)c3)nc3sccn23)n1)Nc1cccc(C(F)(F)F)c1
Meas value: 23.1
--
Smiles notation: O=C(NCCNc1nccc(-c2c(-c3cccc(O)c3)nc3sccn23)n1)c1cc(C(F)(F)F)cc(C(F)(F)F)c1
Meas value: 84.7
--
Smiles notation: COc1cccc(-c2nc3sccn3c2-c2ccnc(NCCNC(=O)c3cc(C(F)(F)F)cc(C(F)(F)F)c3)n2)c1
Meas value: 69.9

The record that follows has no growth at 10 µM shown yet.
*Q* Supply recorded growth at 10 µM for "O=C(NCCNc1nccc(-c2c(-c3cccc(O)c3)nc3sccn23)n1)c1ccc(N2CCOCC2)c(C(F)(F)F)c1" here.
*A* 56.9
